# assayed-system: SETD1A RRM domain (human, UniProt O15047 89-197)
# Sequence (O15047 89-197): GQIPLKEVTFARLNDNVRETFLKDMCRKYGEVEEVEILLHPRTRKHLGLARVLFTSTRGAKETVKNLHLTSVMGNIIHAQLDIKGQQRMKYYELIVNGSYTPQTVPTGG
# assay-method-text: MST; back diffusion; EMSA: 2 nM biotinylated RNA, LightShift RNA EMSA kit protocol, 30 min room temperature, 6% native PAGE in 0.5x TBE; MST: 40% MST power, LED 20-40%, buffer and temperature not in material
# assay-context: protein: recombinant; tags: His (pET28-MHL vector, HisTrap purified); label: uniformly labeled (MST)
metric: Kd (µM)
Report only the number, with the unit µM understood.

Which measured Kd value corresponds to AAGAAUGGCCUCGCGGAGGCAUGCGUCAUGCUAGCGUGCGGGGUACUCUU (ssRNA) [Random50 (R50)] ?
11.8
